Test: Cytotoxicity, MTT test, 72 h
Details: human, NCTC-2544 keratinocytes (immortalized, nontumorigenic)
quantity_measured: IC50 at 72 h

Below, each entry is followed by its recorded IC50 at 72 h result.
Quick check: IC50 at 72 h of O=C(O)c1ccc2[nH]c(-c3ccc(O)cc3)nc2c1 ?
> 50 µM

Quick check: IC50 at 72 h of O=S(=O)(O)c1ccc2[nH]c(-c3ccccc3)nc2c1 [PBSA, reference compound] ?
> 50 µM

Quick check: IC50 at 72 h of O=S(=O)(O)c1ccc2[nH]c(-c3ccccc3O)nc2c1 ?
> 50 µM

Quick check: IC50 at 72 h of O=S(=O)(O)c1ccc2[nH]c(-c3ccc(O)c(O)c3)nc2c1 ?
> 50 µM

Quick check: IC50 at 72 h of O=C(O)c1ccc2[nH]c(-c3ccc(O)cc3O)nc2c1 ?
> 50 µM

Further cases:
Quick check: IC50 at 72 h of O=C(O)c1ccc2[nH]c(-c3ccc(O)c(O)c3O)nc2c1 ?
> 50 µM

Quick check: IC50 at 72 h of O=S(=O)(O)c1ccc2[nH]c(-c3ccc(O)cc3)nc2c1 ?
26.4 µM

Quick check: IC50 at 72 h of Oc1ccc(-c2nc3ccccc3[nH]2)c(O)c1O ?
> 50 µM

Quick check: IC50 at 72 h of O=S(=O)(O)c1ccc2[nH]c(-c3ccc(O)cc3O)nc2c1 ?
> 50 µM

Quick check: IC50 at 72 h of Oc1ccc(-c2nc3ccccc3[nH]2)cc1O ?
> 50 µM

* * *

Assay: UV spectra: λmax and molar extinction coefficient
Assay type: physicochemical
Details: aqueous solution at pH 7
Examples of compounds with documented λ max follow.
Expressed in nm, but write only the number.

Below, each entry is followed by its recorded λ max result.
Quick check: λ max of O=C(O)c1ccc2[nH]c(-c3ccc(O)c(O)c3O)nc2c1 ?
332

Quick check: λ max of O=C(O)c1ccc2[nH]c(-c3ccc(O)cc3)nc2c1 ?
312

Quick check: λ max of O=S(=O)(O)c1ccc2[nH]c(-c3ccc(O)c(O)c3O)nc2c1 ?
328

Quick check: λ max of Oc1ccc(-c2nc3ccccc3[nH]2)cc1 [Compound 7, 2-(4-Hydroxy-phenyl)-1H-benzimidazole] ?
306

Further cases:
Quick check: λ max of Oc1ccc(-c2nc3ccccc3[nH]2)c(O)c1O ?
325

Quick check: λ max of O=S(=O)(O)c1ccc2[nH]c(-c3ccc(O)c(O)c3)nc2c1 ?
313

Quick check: λ max of O=S(=O)(O)c1ccc2[nH]c(-c3ccccc3)nc2c1 [PBSA, reference compound] ?
302

Quick check: λ max of O=S(=O)(O)c1ccc2[nH]c(-c3ccccc3O)nc2c1 ?
315

Quick check: λ max of Oc1ccc(-c2nc3ccccc3[nH]2)cc1O ?
311

Quick check: λ max of O=S(=O)(O)c1ccc2[nH]c(-c3ccc(O)cc3)nc2c1 ?
308

Quick check: λ max of O=C(O)c1ccc2[nH]c(-c3ccc(O)cc3O)nc2c1 ?
321

Quick check: λ max of O=C(O)c1ccc2[nH]c(-c3ccc(O)c(O)c3)nc2c1 ?
317

Quick check: λ max of O=S(=O)(O)c1ccc2[nH]c(-c3ccc(O)cc3O)nc2c1 ?
318

* * *

Examples of molecules with documented λc (critical wavelength) follow.
Experiment: In vitro evaluation of filtering parameters of formulations on PMMA plates (Diffey and Robson)
Conditions: 3% (w/w) in O/W formulation, PMMA plates
Text: It was decided to use a standard formulation oil in water (O/W). In vitro approaches consist in applying a thin film of sunscreen product on an artificial substrate and test, via spectrophotometric measures, the amount of UV radiation passing through the film. Several different artificial substrates are available for this type of analysis; the substrate should be as closed as possible to the physical characteristics of the skin. […]
Write the figure, then the unit, nothing else.

Quick check: λc (critical wavelength) of Oc1ccc(-c2nc3ccccc3[nH]2)c(O)c1O ?
381 nm

Further cases:
Quick check: λc (critical wavelength) of O=S(=O)(O)c1ccc2[nH]c(-c3ccc(O)cc3O)nc2c1 ?
370 nm

Quick check: λc (critical wavelength) of O=C(O)c1ccc2[nH]c(-c3ccc(O)cc3)nc2c1 ?
350 nm

Quick check: λc (critical wavelength) of O=C(O)c1ccc2[nH]c(-c3ccc(O)c(O)c3)nc2c1 ?
370 nm

* * *

Examples of compounds with documented viability at 50 µM follow.
Tested on: NCTC-2544 cells
Test: Phototoxicity / cellular photoprotection, UVA or UVB irradiation, MTT test
Conditions: Homo sapiens, NCTC-2544, light or radiation study, 48 h, read-out: % Cell survival UVB 1 J/cm^2
Expressed in %, but write only the number.

Below, each entry is followed by its recorded viability at 50 µM result.
Quick check: viability at 50 µM of O=C(O)c1ccc2[nH]c(-c3ccc(O)cc3O)nc2c1 [Compound 13] ?
57.5

Quick check: viability at 50 µM of O=S(=O)(O)c1ccc2[nH]c(-c3ccccc3O)nc2c1 [Compound 4] ?
37.7

Quick check: viability at 50 µM of Oc1ccc(-c2nc3ccccc3[nH]2)cc1O [Compound 8] ?
43.9

Quick check: viability at 50 µM of O=C(O)c1ccc2[nH]c(-c3ccc(O)c(O)c3)nc2c1 [Compound 12] ?
64.5

Quick check: viability at 50 µM of O=S(=O)(O)c1ccc2[nH]c(-c3ccc(O)c(O)c3)nc2c1 [Compound 3] ?
58.1

Quick check: viability at 50 µM of O=S(=O)(O)c1ccc2[nH]c(-c3ccccc3)nc2c1 [PBSA, reference compound] ?
64.2

Quick check: viability at 50 µM of O=S(=O)(O)c1ccc2[nH]c(-c3ccc(O)cc3O)nc2c1 [Compound 5] ?
38.6

Quick check: viability at 50 µM of O=C(O)c1ccc2[nH]c(-c3ccc(O)c(O)c3O)nc2c1 [Compound 15] ?
25.6

Further cases:
Quick check: viability at 50 µM of Oc1ccc(-c2nc3ccccc3[nH]2)c(O)c1O [Compound 11] ?
27

Quick check: viability at 50 µM of O=C(O)c1ccc2[nH]c(-c3ccc(O)cc3)nc2c1 [Compound 14] ?
58.4

* * *

Assay: UV spectra: λmax and molar extinction coefficient
Assay type: physicochemical
Settings: aqueous solution at pH 7, at λ max, linear regression Lambert–Beer
Examples of compounds with documented ɛ (molar extinction coefficient) follow.

Below, each entry is followed by its recorded ɛ (molar extinction coefficient) result.
Quick check: ɛ (molar extinction coefficient) of O=C(O)c1ccc2[nH]c(-c3ccc(O)c(O)c3)nc2c1 ?
21 000

Quick check: ɛ (molar extinction coefficient) of O=S(=O)(O)c1ccc2[nH]c(-c3ccccc3O)nc2c1 ?
21 000

Quick check: ɛ (molar extinction coefficient) of Oc1ccc(-c2nc3ccccc3[nH]2)c(O)c1O ?
12 000

Quick check: ɛ (molar extinction coefficient) of O=C(O)c1ccc2[nH]c(-c3ccc(O)cc3O)nc2c1 ?
20 000

Quick check: ɛ (molar extinction coefficient) of Oc1ccc(-c2nc3ccccc3[nH]2)cc1 [Compound 7, 2-(4-Hydroxy-phenyl)-1H-benzimidazole] ?
24 000

Further cases:
Quick check: ɛ (molar extinction coefficient) of O=S(=O)(O)c1ccc2[nH]c(-c3ccc(O)cc3)nc2c1 ?
25 000

Quick check: ɛ (molar extinction coefficient) of Oc1ccc(-c2nc3ccccc3[nH]2)cc1O ?
16 000

Quick check: ɛ (molar extinction coefficient) of O=C(O)c1ccc2[nH]c(-c3ccc(O)c(O)c3O)nc2c1 ?
17 000

Quick check: ɛ (molar extinction coefficient) of O=S(=O)(O)c1ccc2[nH]c(-c3ccccc3)nc2c1 [PBSA, reference compound] ?
25 000

Quick check: ɛ (molar extinction coefficient) of O=S(=O)(O)c1ccc2[nH]c(-c3ccc(O)c(O)c3O)nc2c1 ?
22200 L/mol/cm

Quick check: ɛ (molar extinction coefficient) of O=S(=O)(O)c1ccc2[nH]c(-c3ccc(O)cc3O)nc2c1 ?
23 000

Quick check: ɛ (molar extinction coefficient) of O=C(O)c1ccc2[nH]c(-c3ccc(O)cc3)nc2c1 ?
24 000

Quick check: ɛ (molar extinction coefficient) of O=S(=O)(O)c1ccc2[nH]c(-c3ccc(O)c(O)c3)nc2c1 ?
23 000

* * *

Experiment: Cytotoxicity, MTT test, 72 h
Conditions: human, NCTC-2544 keratinocytes (immortalized, nontumorigenic)
Examples of compounds with documented IC50 at 72 h follow.

Quick check: IC50 at 72 h of O=S(=O)(O)c1ccc2[nH]c(-c3ccc(O)c(O)c3O)nc2c1 [Compound 6] ?
23.1 µM

Quick check: IC50 at 72 h of O=C(O)c1ccc2[nH]c(-c3ccc(O)c(O)c3)nc2c1 [Compound 12] ?
> 50 µM

Here is another compound to look at.
Quick check: IC50 at 72 h of Oc1ccc(-c2nc3ccccc3[nH]2)cc1 [Compound 7, 2-(4-Hydroxy-phenyl)-1H-benzimidazole] ?
26.1 µM
